TEST_METHOD_NOTES: Antitumor activity against B16 melanoma cells in mice, activity is expressed as average survival time of treated/control animals x 100.
Type: functional, Mus musculus
Provide the recorded T/C for the entries that follow.
One number for each entry, in %.

Worked set:
• CN(NS(=O)(=O)c1ccc(Br)cc1)S(=O)(=O)c1ccc(Br)cc1 = 160
• COc1ccc(S(=O)(=O)NN(C)S(=O)(=O)c2ccc(OC)cc2)cc1 = 191
• COc1ccc(S(=O)(=O)N(C)NS(=O)(=O)c2ccccc2[N+](=O)[O-])cc1 = 158
• Cc1ccc(S(=O)(=O)N(C)NS(=O)(=O)Cc2ccccc2)cc1 = 172
• CN(NS(=O)(=O)Cc1ccccc1)S(=O)(=O)c1ccccc1 = 186
• CN(NS(=O)(=O)c1ccccc1)S(=O)(=O)c1ccccc1 = 175
• CCS(=O)(=O)NN(C)S(=O)(=O)c1ccc(I)cc1 = 177
• COc1ccc(S(=O)(=O)NN(C)S(C)(=O)=O)cc1 = 233

List T/C for every entry below, keeping the order given.
1. COc1ccc(S(=O)(=O)NN(C)S(=O)(=O)c2ccc(C)cc2)cc1
2. Cc1ccc(S(=O)(=O)NN(C)S(C)(=O)=O)cc1
3. COc1ccc(S(=O)(=O)N(C)NS(=O)(=O)Cc2ccccc2)cc1

Result:
200
256
160

* * *

Provide the recorded log10 of Dose for the entries that follow.
Species on record: Mus musculus
TEST_METHOD_NOTES: Antitumor activity against B16 melanoma cells in mice. Activity is expressed as optimal effective dose.
Format: functional
Note the log scale: values are log10 of Dose expressed in mg/kg.

Worked set:
• CN(NS(=O)(=O)c1ccc2ccccc2c1)S(=O)(=O)Cc1ccccc1 = 1.70
• CN(NS(=O)(=O)Cc1ccccc1)S(=O)(=O)Cc1ccccc1 = 2.18
• CN(NS(=O)(=O)c1ccccc1)S(=O)(=O)c1ccc(Cl)cc1 = 1.70

List log10 of Dose for every entry below, keeping the order given.
1. COc1ccc(S(=O)(=O)N(C)NS(C)(=O)=O)cc1
2. COc1ccc(S(=O)(=O)N(C)NS(=O)(=O)Cc2ccccc2)cc1
3. COc1ccc(S(=O)(=O)N(C)NS(=O)(=O)c2ccc3ccccc3c2)cc1
4. CN(NS(=O)(=O)Cc1ccccc1)S(=O)(=O)c1ccccc1
5. CN(NS(=O)(=O)c1ccc(Cl)cc1)S(C)(=O)=O

Result:
1: 1.30; 2: 1.70; 3: 2.00; 4: 2.00; 5: 1.78

List log10 of Dose for every entry below, keeping the order given.
1. CN(NS(C)(=O)=O)S(=O)(=O)c1ccc(Cl)cc1
2. COc1ccc(S(=O)(=O)N(C)NS(=O)(=O)c2ccc(Br)cc2)cc1

Result:
1. 1.30
2. 2.00

List log10 of Dose for every entry below, keeping the order given.
1. COc1ccc(S(=O)(=O)N(C)NS(=O)(=O)c2ccccc2)cc1
2. Cc1ccc(S(=O)(=O)N(C)NS(=O)(=O)c2ccc(Br)cc2)cc1
3. COc1ccc(S(=O)(=O)NN(C)S(=O)(=O)c2ccc(Cl)cc2)cc1

Result:
1: 2.00; 2: 2.18; 3: 1.70

* * *

TEST_METHOD_NOTES: Antitumor activity against B16 melanoma cells in mice, activity is expressed as average survival time of treated/control animals x 100.
Format: functional, Mus musculus
Record Criterion met whenever T/C is at 200% or higher; record Criterion not met when lower.

Below, 2 compounds whose answers are already recorded.
• COc1ccc(S(=O)(=O)NN(C)S(=O)(=O)c2ccc(Cl)cc2)cc1 = Criterion not met
• COc1ccc(S(=O)(=O)N(CCCl)NS(C)(=O)=O)cc1 = Criterion not met

Query: Given the entry CN(NS(C)(=O)=O)S(C)(=O)=O , answer whether its T/C meets or surpasses 200%.
Result: Criterion met

Query: Given the entry CN(NS(C)(=O)=O)S(=O)(=O)c1ccc2ccccc2c1 , answer whether its T/C meets or surpasses 200%.
Result: Criterion not met

Query: Given the entry CN(NS(=O)(=O)c1ccc2ccccc2c1)S(=O)(=O)Cc1ccccc1 , answer whether its T/C meets or surpasses 200%.
Result: Criterion not met

Query: Given the entry CCS(=O)(=O)NN(C)S(=O)(=O)c1ccc(Br)cc1 , answer whether its T/C meets or surpasses 200%.
Result: Criterion not met
